Data provenance is paper PMC5540273.

System: CLK1;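 further: KINOMEscan kinase panel screen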
testParameters: concentration: 1 μM, replicates: in singlicate; n = 1
# cutoff 1% applies to %Inh; >= gives criterion met, < gives criterion not met

| compound | answerLabel |
| --- | --- |
| Fc1ccc(Nc2nccc(-c3c(-c4ccc(Cl)cc4)nn4ncccc34)n2)cc1F [GW829058] | criterion not met |
| CSc1ccc(NC2=C(c3ccccc3Cl)C(=O)NC2=O)cc1 [SB-342411] | criterion met |
| Fc1cccc(COc2ccc(Nc3ncnc4sc(-c5ccc[nH]5)cc34)cc2Cl)c1 [GW707818] | criterion met |
| CC(C)N1CCC(n2cnc(-c3ccc(F)cc3)c2-c2ccnc(N)n2)CC1 [SB-223132] | criterion met |
| O=C(NCCCN1CCCC1=O)c1cnc(NCc2cc(Cl)ccc2Cl)nc1NC1CCNCC1 | criterion not met |
| O=C(Nc1n[nH]c2nc(-c3ccco3)c(Br)cc12)c1ccc(CN2CCCC2)cc1.O=C(O)[C@H](O)[C@@H](O)C(=O)O [SB-742352] | criterion met |
| O=C(c1ccc(-c2cc(-c3c[nH]nc3-c3ccccn3)ccn2)cc1)N1CCCC1 [GW792479] | criterion not met |
